Values compiled from paper PMC3714356.

- measured on: AhR (Homo sapiens)
- Sequence (P35869 11-848): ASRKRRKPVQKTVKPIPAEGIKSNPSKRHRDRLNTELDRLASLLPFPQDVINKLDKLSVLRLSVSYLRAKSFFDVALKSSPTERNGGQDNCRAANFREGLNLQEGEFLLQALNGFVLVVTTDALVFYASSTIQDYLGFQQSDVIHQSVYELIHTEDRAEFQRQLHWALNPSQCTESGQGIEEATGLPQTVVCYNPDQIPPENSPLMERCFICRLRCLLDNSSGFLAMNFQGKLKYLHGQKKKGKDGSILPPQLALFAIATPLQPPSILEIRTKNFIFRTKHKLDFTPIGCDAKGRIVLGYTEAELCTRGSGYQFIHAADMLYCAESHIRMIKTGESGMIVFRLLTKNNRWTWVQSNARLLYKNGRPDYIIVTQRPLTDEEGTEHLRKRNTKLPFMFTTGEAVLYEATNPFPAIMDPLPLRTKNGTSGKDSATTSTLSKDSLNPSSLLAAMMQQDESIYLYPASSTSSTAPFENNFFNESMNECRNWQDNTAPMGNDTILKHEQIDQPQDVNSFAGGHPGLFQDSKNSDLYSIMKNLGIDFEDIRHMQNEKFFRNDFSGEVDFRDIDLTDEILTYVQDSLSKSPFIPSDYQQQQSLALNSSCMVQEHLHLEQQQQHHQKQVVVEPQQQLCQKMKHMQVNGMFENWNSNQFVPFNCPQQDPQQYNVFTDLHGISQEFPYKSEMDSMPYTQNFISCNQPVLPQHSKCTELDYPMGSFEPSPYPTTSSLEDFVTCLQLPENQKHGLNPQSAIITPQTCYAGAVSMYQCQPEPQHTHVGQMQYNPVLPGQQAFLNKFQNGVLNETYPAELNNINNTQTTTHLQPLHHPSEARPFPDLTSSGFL
- protocol summary: cell-based
readout label: pEC50
pEC50 is a log-scale quantity: -log10 of the concentration expressed in molar.

{"compound": "O=C1c2ccccc2-n2c1nc1ccccc1c2=O", "value": 6.97}

Moving on to another compound below.
Briefly, pEC50 measured for Clc1cc2c(cc1Cl)Oc1cc(Cl)c(Cl)cc1O2 [TCDD, 2,3,7,8-tetrachlorodibenzo-p-dioxin, reference compound] : 9.28
